test system: 997726-040-R-J2-PDC tumor spheroids, viability; test: Anticancer human tumor 997726-040-R-J2-PDC patient-derived squamous cell lung carcinoma cell line growth inhibition [PI3K]; conditions: curve of first compound; second compound 0.00316 µM; spheroids with HUVEC and MSC;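 further: spheroids exposed to compounds for seven days before readout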
Parameter: IC50. Scope: all listed entries.

1. C#Cc1c(F)ccc2cc(O)cc(-c3ncc4c(N5CC6CCC(C5)N6)nc(OCC56CCCN5CC(F)C6)nc4c3F)c12 (centres undefined) + CC(Nc1ccc2c(c1)OCCn1cc(N3C(=O)OCC3C(F)F)nc1-2)C(N)=O: > 10000 nM
2. CCN1CCN(Cc2ccc(Nc3ncc(F)c(-c4cc(F)c5nc(C)n(C(C)C)c5c4)n3)nc2)CC1 + COc1c(OCCCN2CCOCC2)ccc2c3n(c(=NC(=O)c4cnc(N)nc4)nc12)CCN3: > 1000 nM
3. CC1(C)CCC(Nc2ncc(C(F)(F)F)c(-c3c[nH]c4c(P(C)(C)=O)c(C#N)ccc34)n2)CN1 (centres undefined) + COc1c(OCCCN2CCOCC2)ccc2c3n(c(=NC(=O)c4cnc(N)nc4)nc12)CCN3: < 31.6 nM

# evaluate next
Report IC50 for Cn1ncnc1[C@H]1c2n[nH]c(=O)c3cc(F)cc(c23)N[C@@H]1c1ccc(F)cc1 + CC(Nc1ccc2c(c1)OCCn1cc(N3C(=O)OCC3C(F)F)nc1-2)C(N)=O please.
> 100 nM
